Assay: Inhibition of Hepatitis C virus genotype 1b Con1 replicon NS5A transfected in human HuH7 cells assessed as decrease in replication of viral replicon after 4 days by luciferase reporter gene assay
Assay type: cell-based, Hepatitis C virus (isolate Con1)
Settings: Huh-7, 96 h
QUANTITY NAME: EC50 (nM)

>>> assay_value("COC(=O)N[C@H](C(=O)N1CCC[C@H]1c1nc2cc(-c3ccc(-c4cc5nc([C@@H]6CCCN6C(=O)[C@@H](NC(=O)OC)C(C)C)[nH]c5cc4OC)cc3)c(OC)cc2[nH]1)C(C)C")
0.093

(P) COC(=O)N[C@H](C(=O)N1CCC[C@H]1c1nc2cc(-c3ccc(-c4cc(C(F)(F)F)c5[nH]c([C@@H]6CCCN6C(=O)[C@@H](NC(=O)OC)C(C)C)nc5c4)cc3)cc(C(F)(F)F)c2[nH]1)C(C)C
(Q) COCc1c(-c2ccc(-c3ccc4[nH]c([C@@H]5CCCN5C(=O)[C@@H](NC(=O)OC)C(C)C)nc4c3COC)cc2)ccc2[nH]c([C@@H]3CCCN3C(=O)[C@@H](NC(=O)OC)C(C)C)nc12
Prompt: When the recorded EC50 values are compared, which is smaller: that of P or that of Q ? Your answer should be the label of the entry you select.
Response: P

====

Assay: Inhibition of Hepatitis C virus genotype 1a H77 replicon NS5A transfected in human HuH7 cells assessed as decrease in replication of viral replicon after 4 days by luciferase reporter gene assay
Format: cell-based, Hepatitis C virus (isolate H77)
Conditions: Huh-7, 96 h
pEC50: −log10 of the molar value.
Below, each entry is listed alongside its reported pEC50.

>>> assay_value("COC(=O)N[C@H](C(=O)N1CCC[C@H]1c1nc2cc([C@H]3CC[C@H](c4ccc5[nH]c([C@@H]6CCCN6C(=O)[C@@H](NC(=O)OC)C(C)C)nc5c4)N3c3cc(F)c(N4CCCCC4)c(F)c3)ccc2[nH]1)C(C)C")
"11.22 to 11.52"
>>> assay_value("COC(=O)N[C@H](C(=O)N1CCC[C@H]1c1nc2ccc([C@H]3CC[C@H](c4ccc5nc([C@@H]6CCCN6C(=O)[C@@H](NC(=O)OC)C(C)C)[nH]c5c4)N3c3ccc(C(C)(C)C)cc3)cc2[nH]1)C(C)C")
"10.96 to 11.70"
>>> assay_value("COC(=O)N[C@H](C(=O)N1CCC[C@H]1c1cc2nc(-c3ccc(-c4ccc5[nH]c([C@@H]6CCCN6C(=O)[C@@H](NC(=O)OC)C(C)C)cc5n4)cc3)ccc2[nH]1)C(C)C")
"< 7.00"

Turning now to a further record.
Prompt: Requested field: pEC50. Item: COC(=O)N[C@H](C(=O)N1CCC[C@H]1c1nc2cc([C@H]3CC[C@H](c4cc5nc([C@@H]6CCCN6C(=O)[C@@H](NC(=O)OC)C(C)C)[nH]c5cc4F)N3c3ccc(C(C)(C)C)cc3)c(F)cc2[nH]1)C(C)C
Response: 11.10 to 11.70

====

Entries and their measured EC50 follow.
Test: Inhibition of Hepatitis C virus genotype 6a replicon NS5A transfected in human HuH7 cells assessed as decrease in replication of viral replicon after 4 days by luciferase reporter gene assay
Assay type: cell-based, Hepatitis C virus subtype 6a
Conditions: Huh-7, 96 h

Examples with answers:
>>> assay_value("COC(=O)N[C@H](C(=O)N1CCC[C@H]1c1nc2cc(-c3ccc(-c4cc(OC)c5[nH]c([C@@H]6CCCN6C(=O)[C@@H](NC(=O)OC)C(C)C)nc5c4)cc3)cc(OC)c2[nH]1)C(C)C")
"> 100 nM"
>>> assay_value("COC(=O)N[C@H](C(=O)N1CCC[C@H]1c1nc2cc(-c3ccc(-c4cc5nc([C@@H]6CCCN6C(=O)[C@@H](NC(=O)OC)C(C)C)[nH]c5cc4OC)cc3)c(OC)cc2[nH]1)C(C)C")
"> 100 nM"

Pending molecule:
Prompt: What does the record list as EC50 for COC(=O)N[C@H](C(=O)N1CCC[C@H]1c1nc2cc(-c3ccc(-c4cc(C(F)(F)F)c5[nH]c([C@@H]6CCCN6C(=O)[C@@H](NC(=O)OC)C(C)C)nc5c4)cc3)cc(C(F)(F)F)c2[nH]1)C(C)C ?
Response: > 10 nM
